B1: Syntaxin-binding protein 4, residues 493 to 538; numbered along this chain, Q6ZWJ1 (parent)
chain: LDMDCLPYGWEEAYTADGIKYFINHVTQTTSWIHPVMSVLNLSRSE

Variants of: B1
Assay: abundance fitness (aPCA) (normalised: wild type 0, dead -1); higher = more abundant; growth selection in yeast, the domain comes from the species named
Conditions: Homo sapiens
Measured Quantity: abundance fitness
One number for each entry.

INPUT: Endpoint output: abundance fitness of E12W . Value?
OUTPUT: -0.744

// input: 5 variants below; output: abundance fitness for each
1. W32H
2. L6D
3. Y8I
4. Q28P
5. V36A

OUTPUT:
1. -1.09
2. -0.405
3. -0.08
4. -0.793
5. 0.59

// input: 2 variants below; output: abundance fitness for each
1. L40F
2. L1F

OUTPUT:
[-0.304, -0.163]

// input: 4 variants below; output: abundance fitness for each
1. A16W
2. E12Q
3. K20S
4. T30Q

OUTPUT:
1: -0.901; 2: -0.463; 3: -0.836; 4: -0.624
